Value source: patent EP4745156A1

For each record, write down the corresponding koff.
# Assayed system: His-tagged canine IL-31 (interleukin 31) recombinant protein (canine)
# Assay protocol: BLI (Gator), biotinylated antibody on streptavidin probe, canine IL-31 as analyte
Number plus unit, in that order.

>  <Binder>
6465-H3K1-canIgGB (antibody, V domains shown) VH: EVQLVESGGDLVKPGGSLRLSCVASGYSFTNYYLYWVRQAPGKGLEWVAELNPRNGGTNLNAKFKTRFTISRDNAKNMAYLQMNSLRAEDTAVYYCTRGGTTVVVRDVMDFWGQGTLVTVSS VL: EIVLTQTPLSLAVTPGELATISCRASESVDSYGNSFMHWYLQKPGQTPRLLIYRASNLESGVSDRFSGSGSRTDFTLKISRVEAEDVGVYYCQQSNEDPYTFGQGTKLEIKR

>  <Result>
0.00121 s⁻¹

$$$$
>  <Binder>
6465-H2K1-canIgGB (antibody, V domains shown) VH: EVQLVESGGDLVKPGGSLRLSCVASGYSFTNYYLYWVRQAPGKGLQWLGELNPRNGGTNLNAKFKTRFTISVDKAKNTAYLQMNSLRAEDTAVYYCTRGGTTVVVRDVMDFWGQGTLVTVSS VL: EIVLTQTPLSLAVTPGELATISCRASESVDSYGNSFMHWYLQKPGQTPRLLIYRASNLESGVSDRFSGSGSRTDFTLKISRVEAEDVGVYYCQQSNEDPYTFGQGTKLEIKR

>  <Result>
0.00171 s⁻¹

$$$$

Shift focus to the following entry.
stdin: Output koff of B2-H2K3-canIgGB (antibody, V domains shown) VH: EVQLVESGGDLVKPGGSLRLSCVASGFTFSDAWMDWVRQAPGKGLEWVAEIRSRAESHATYYAESVKGRFTISRDDAKNMVYLQMNSLRAEDTAVYYCTPASTMITTGWFAYWGQGTLVTVSS VL: EIVMTQTPLSLSVSPGELATISCRASQNISVYLHWYQQKPGQAPKVLIKYVSQSISGVPSRFSGSGSGSDFTLTISSVEAEDVGVYYCQNGHSFPYTFGQGTKLEIKR
stdout: 0.000143 s⁻¹
